Just for reference, a melting point compilation (Tetko et al.; mined from patent text by program, amines drawn as free bases though some values may be those of a salt) is where these values come from.

Form field: melting point (one value per entry).

Cn1nc(N)nc1NCCCO ... 139 to 140 °C
CC(=O)NCC1CC1c1cccc2nscc12 (configuration not stated) ... 96 to 97 °C
COc1ccc(-c2cnccn2)cc1 ... 86 to 87 °C
Cc1cccc(C(=O)c2[nH]c3cc(Cl)ccc3c2CC(=O)O)n1 ... 230 to 231 °C
CCCCSc1ccc2c3c(cccc13)C(=O)N2 ... 126 to 129 °C

For "CC(C)(C)NC(=S)N1CCN(c2cnccn2)CC1" the compound record lists melting point as 153 to 156 °C

For CCC1CC2(C)C(CCC3C2CCC2(C)C(OC)CCC32)CC1=O (configuration not stated) the compound record lists melting point as 105 to 107 °C

For "O=c1[nH][nH]c(=O)c2c(O)c3ccc(C(F)(F)F)cc3nc12" the compound record lists melting point as 170 to 172 °C

---

Form field: melting point (one value per entry).

For Nc1nc(-c2cc(Cl)ccc2Cl)nc(N2CCCC(O)C2)n1 (centres undefined) the compound record lists melting point as 178 to 180 °C

For CSc1ccc(CCCOCCCCCCNCC(O)c2ccc(O)c(F)c2)cc1 (centres undefined) the compound record lists melting point as 66 to 67 °C

For "COC(=O)C=C[C@@H](Cc1cn(CC=Cc2ccccc2)c2ccccc12)NC(=O)OC(C)(C)C" the compound record lists melting point as 119 to 121 °C

For CC(Cl)(Cl)C(NC(=O)c1cccc(Cl)c1)NC(=NC#N)Nc1ccc(Cl)nc1 (centres undefined) the compound record lists melting point as 138 to 140 °C

For "CCCCCCNC1=NS(=O)(=O)c2cc(Cl)c(Cl)cc2N1" the compound record lists melting point as 282 to 286 °C

---

Quantity Name: melting point

Example compounds with recorded melting point:
CCCc1cc(Cn2c(=O)ccc3c(CC)nc(CC)cc32)ccc1O[Si](C)(C)C(C)(C)C ... 103 to 105 °C
CC(=O)c1cn(-c2c(Cl)cc(OC(F)(F)F)cc2Cl)nc1C#N ... 106 to 107 °C

For "CCOC(=O)c1c(-c2cccc(C)c2)oc(Cl)c(Cl)c1=O" the compound record lists melting point as 113 °C

For CS(=O)(=O)N1CCCC(Nc2nccc(-n3nnc4ccccc43)n2)C1 (centres undefined) the compound record lists melting point as 196 to 197 °C

---

Form field: melting point (one value per entry).

O=C(NCCO)c1cccc(-c2cccc3nc(Oc4cccc(C(F)(F)F)c4)sc23)c1 ... 103 to 104 °C
COC1(OCCc2nc(C(C)C)c(Sc3cc(Cl)cc(Cl)c3)n2C)c2ccccc2-c2ccccc21 ... 130 to 131 °C
CCCC(=O)NCCC1=C(Cc2ccccc2)Cc2ccc(OC)cc21 ... 127 to 129 °C
CCN(C=NS(=O)(=O)NC(=O)Nc1nc(OC)cc(OC)n1)CSC ... 143 to 144 °C
CC(C)S(=O)(=O)c1cc(OCc2ccc(S(C)(=O)=O)cn2)c2[nH]nc(Nc3nccs3)c2c1 ... 160 to 161 °C
CCOc1ccc(OCCN2CCN(c3cc(Cl)nnc3Cl)CC2)cc1 ... 93 to 95 °C
COc1cc(-n2c(=O)cc(C(F)(F)F)n(C)c2=O)c(F)cc1Br ... 154 °C
N#Cc1ccc(C2CC(n3ccnc3)c3ccccc3N2)cc1 (centres undefined) ... 166 to 168 °C

For "Cc1ccccc1-n1ccc2c(NCCO)nc3c(C)cccc3c21" the compound record lists melting point as 187 to 188 °C

For CN1Cc2ccccc2C(OCC(O)Cn2ccnc2)c2c1nc1ccc(Br)cc1c2Cl (centres undefined) the compound record lists melting point as 175 to 177 °C

For "CC(C)(C)Nc1c([N+](=O)[O-])cnc2ccccc12" the compound record lists melting point as 106 to 108 °C

---

Form field: melting point (one value per entry).

For "COCCc1nc2c(N)nc3ccccc3c2n1CCCNC(=O)Nc1ccccc1" the compound record lists melting point as 40 °C

For "COC(=O)c1csc(-c2cc3ccccc3[nH]2)n1" the compound record lists melting point as 69 to 71 °C

For CC(=O)C1(C)COC(c2ccc([N+](=O)[O-])cc2)OC1 (stereo not given) the compound record lists melting point as 101 to 102 °C

For "CCNC(=O)c1ccccc1Nc1nc(Nc2cc3c(cc2OC)CC(=O)N(CC)CC3)ncc1Cl" the compound record lists melting point as 244 to 251 °C

For "CC(C)C[C@H](NC(=O)[C@H](CC(C)C)N[C@H](CC(C)C)C(=O)OCc1ccccc1)C(=O)N[C@@H](C)C(N)=O" the compound record lists melting point as 133 to 134 °C

For "CC(C)C(=O)c1ccc(-c2ccc3c(c2)CC[C@H]2N(C)C(=O)CC[C@]32C)cc1" the compound record lists melting point as 101 to 103 °C

For CCCCCCCCCCCCCCCCCCNC(=O)OCC1(CO)CCCO1 (stereo not given) the compound record lists melting point as 57 to 58 °C

For "NC(Cc1ccccc1-c1ccc(C(=O)N2Cc3ccc(C(=O)NCc4cccnc4)n3Cc3ccccc32)cc1)=NO" the compound record lists melting point as 131 to 134 °C

For "NC(=O)c1ccc(OC2CCN(Cc3ccccc3)CC2)cc1" the compound record lists melting point as 166 to 168 °C

For "COc1cc(C)ccc1Oc1ccc(C=O)cc1C#N" the compound record lists melting point as 112 to 113 °C

---

Quantity Name: melting point

CN(C)c1cccc(C(=O)NCCc2c3n(c4ccccc24)C(=O)CCC3)c1 ... 136 °C
CCCOCC1CC2CCC13CN(CCC)CCC31c3cccc(O)c3OC21 (stereo not given) ... 123 to 124 °C
CCCCOC(=O)[C@H](Cc1ccc(O)cc1)NC(=O)C1(NC(=O)C2(S)CCCC2)CCCC1 ... 106 to 107 °C
Cc1cc(-c2nc3ccccc3c(=O)n2-c2ccc(F)cc2)cc(C)c1OCCO ... 95 to 97 °C

For "Oc1cc2c3ccc(O)c(O)c3n(Cc3ccc(Br)cc3)c2cc1O" the molecule record lists melting point as 249 to 252 °C

For "COC(=O)Cc1ccc(-c2cc(O)c3ccccc3c2O)n1C" the molecule record lists melting point as 200 to 201 °C

For "CCc1cc(Nc2nc(Nc3cc(CC)n[nH]3)c3ccccc3n2)[nH]n1" the molecule record lists melting point as 248 to 252 °C

For "Oc1cccc(O)c1Br" the molecule record lists melting point as 86 to 88 °C

For Clc1ccc(C2(Cn3ccnc3)OC2c2ccc(Cl)cc2Cl)cc1 (stereo not given) the molecule record lists melting point as 102 to 103 °C

For "Cn1c(C(F)(F)F)cc(=O)n(-c2cc(OC(=O)NCC3CCCCC3)c(Cl)cc2F)c1=O" the molecule record lists melting point as 132 to 135 °C

For "Nc1c(-c2ccc(Br)cc2)nc2ccc(Cl)cc2c1C(=O)O" the molecule record lists melting point as 241 to 242 °C

For "COc1ccc(NC(=O)/C=C/c2ccc(C(C)(C)C)cc2)cc1OC" the molecule record lists melting point as 115 to 116 °C

For "NS(=O)(=O)c1cccc(NC(=O)c2cnn3c(C(F)F)cc(-c4ccc(C(F)(F)F)c(OCC(F)(F)F)c4)nc23)c1" the molecule record lists melting point as 241 °C

For CCN(CC)C(=O)CN1C(=O)C(NC(=O)Nc2cccc(OC)c2)N=C(c2ccccc2)c2ccccc21 (stereo not given) the molecule record lists melting point as 222 to 224 °C

For Cc1c(Cl)cc(C(=O)C(O)CC(=O)O)cc1Cl (stereo not given) the molecule record lists melting point as 114 to 118 °C

---

Quantity Name: melting point

COc1cc(=O)c2c([nH]c1=O)CC(Cl)C(Cl)C2 (stereo not given) ... 229 to 230 °C

For "COC(=O)c1cc2c(Br)cccc2n1C" the compound record lists melting point as 85 to 86 °C

For "CCOP(=S)(OCC)SC(=CC(=O)c1cccc(Br)c1)C(=O)O" the compound record lists melting point as 107 to 111 °C

For "O=c1[nH]cc(-c2ccnc(Cl)c2)n1-c1ccc(F)cc1" the compound record lists melting point as 270 °C

For "NS(=O)(=O)c1ccc(N2CC(=O)N(c3ccccc3)C2=O)cc1" the compound record lists melting point as 255 to 257 °C

For "O=C(O)CCn1cc(Br)c2c3c(c(-c4ccccc4Cl)cc21)C(=O)NC3=O" the compound record lists melting point as 182 to 186 °C

For "Brc1cn2ccccc2n1" the compound record lists melting point as 83 to 85 °C

For "O=c1[nH]c2cc(Cl)ccc2n1C1CCN(CCNC(c2ccc(F)cc2)c2ccc(F)cc2)CC1" the compound record lists melting point as 199 °C

For "CCc1cccc(C)c1CNc1cc(C(=O)N(C)C)cn2c(C)nnc12" the compound record lists melting point as 201 °C

For "O=Cc1cncc(Br)c1" the compound record lists melting point as 95 °C
